All figures here come from patent US20240276935A1.

Test system: C. sativa
Design: species or system Cannabis sativa
Assay Conditions: in vivo
Please respond with reported Yield (g/plant), Cultivar I for every item in the list.
Answers are plain numbers, in g/plant.

// each listed compound needs a value for Yield (g/plant), Cultivar I
1. COc1cc(/C=C/CO)ccc1O [Coniferyl Alcohol]
2. COc1cc(/C=C/CO)cc(OC)c1O [Sinapyl Alcohol (Syringil monomer), Sinapyl Alcohol]
3. OC/C=C/c1ccc(O)cc1 [Paracoumaryl Alcohol]
4. O=C(O)[C@H]1OC(O)[C@H](O)[C@@H](O)[C@H]1O (stereo partly drawn) [D Galactoronic Acid]
5. CC(=O)N[C@H]1C(O)O[C@H](CO)[C@@H](O)[C@@H]1O[C@H](C)C(=O)O (stereo partly drawn) [N-Acetylmuramic Acid]
6. CC(=O)N[C@H]1C(O)O[C@H](CO)[C@@H](O)[C@@H]1O (stereo partly drawn) [N-Acetyl-D-Glucosamine (4), N-Acetyl-D-Glucosamine]

13.6
16.4
14.7
13.5
13.4
11.6

###

System: C. sativa
Design: species or system Cannabis sativa
Assay Conditions: in vivo
Please respond with reported Yield (g/plant), Cultivar III for every item in the list.
One number for each entry, in g/plant.

# example entries with known answers
COc1cc(/C=C/CO)ccc1O    12.4
CC(=O)N[C@H]1C(O)O[C@H](CO)[C@@H](O)[C@@H]1O (stereo partly drawn)    9.2
CC(=O)N[C@H]1C(O)O[C@H](CO)[C@@H](O)[C@@H]1O[C@H](C)C(=O)O (stereo partly drawn)    11.5
COc1cc(/C=C/CO)cc(OC)c1O [Sinapyl Alcohol (Syringil monomer), Sinapyl Alcohol]    13.5
O=C(O)[C@H]1OC(O)[C@H](O)[C@@H](O)[C@H]1O (stereo partly drawn)    10.2

Entry OC/C=C/c1ccc(O)cc1 , Yield (g/plant), Cultivar III reported as 11.9
